The reported numbers originate from ChEMBL document CHEMBL3227997.

experiment: Cytotoxicity against mouse L5178Y cells assessed as growth inhibition after 96 hrs; format: cell-based; conditions: read-out: ID50
Entries and their measured log10 of GI50 at 96 h follow.
Measured Property: log10 of GI50 at 96 h (log10 of the value in µg/mL)

[
  {
    "Compound": "Cc1cn([C@@H]2O[C@H](CO)[C@@H](O)[C@@H]2F)c(=O)[nH]c1=O [5-METHYL-2'-FLUOROARAURACIL]",
    "Val": 0.20
  },
  {
    "Compound": "Cl.Nc1nc(=O)n([C@@H]2O[C@H](CO)[C@@H](O)[C@@H]2F)cc1I",
    "Val": 1.68
  },
  {
    "Compound": "O=c1[nH]c(=O)n([C@@H]2O[C@H](CO)[C@@H](O)[C@@H]2F)cc1F",
    "Val": 0.00
  },
  {
    "Compound": "Nc1nc(=O)n([C@@H]2O[C@H](CO)[C@@H](O)[C@@H]2F)cc1F",
    "Val": -0.30
  },
  {
    "Compound": "Nc1nc(=O)n([C@@H]2O[C@H](CO)[C@@H](O)[C@@H]2F)cc1Cl",
    "Val": 0.15
  },
  {
    "Compound": "O=c1[nH]c(=O)n([C@@H]2O[C@H](CO)[C@@H](O)[C@@H]2F)cc1Br",
    "Val": -0.05
  },
  {
    "Compound": "O=c1[nH]c(=O)n([C@H]2C[C@H](O)[C@@H](CO)O2)cc1I [IDOXURIDINE]",
    "Val": 0.62
  },
  {
    "Compound": "O=c1[nH]c(=O)n([C@@H]2O[C@H](CO)[C@@H](O)[C@@H]2O)cc1I",
    "Val": 1.48
  },
  {
    "Compound": "Nc1ccn([C@@H]2O[C@H](CO)[C@@H](O)[C@@H]2F)c(=O)n1",
    "Val": -1.30
  },
  {
    "Compound": "Nc1ccn([C@@H]2O[C@H](CO)[C@@H](O)[C@@H]2O)c(=O)n1 [CYTARABINE]",
    "Val": -1.70
  },
  {
    "Compound": "O=c1[nH]c(=O)n([C@@H]2O[C@H](CO)[C@@H](O)[C@@H]2F)cc1I [FIALURIDINE]",
    "Val": -0.05
  },
  {
    "Compound": "Nc1nc(=O)n([C@@H]2O[C@H](CO)[C@@H](O)[C@@H]2F)cc1Br",
    "Val": 1.00
  },
  {
    "Compound": "O=c1[nH]c(=O)n([C@@H]2O[C@H](CO)[C@@H](O)[C@@H]2F)cc1Cl",
    "Val": 0.15
  },
  {
    "Compound": "Nc1nc(=O)n([C@@H]2O[C@H](CO)[C@@H](O)[C@@H]2O)cc1I",
    "Val": -0.70
  }
]

---

# inhibition at 100 µg/mL values compiled below
tested on: Human alphaherpesvirus 1; test: Antiviral activity against HSV1 2931 infected in African green monkey Vero cells assessed as inhibition of virus replication at 100 ug/ml after 24 hrs relative to control; assay type: functional; settings: Human alphaherpesvirus 1, 2931, Vero
Measured Property: inhibition at 100 µg/mL (%)

[
  {
    "Compound": "Cl.Nc1nc(=O)n([C@@H]2O[C@H](CO)[C@@H](O)[C@@H]2F)cc1I",
    "Output Unit": "%",
    "Result Modifier": "=",
    "Val": 100
  },
  {
    "Compound": "Cc1cn([C@@H]2O[C@H](CO)[C@@H](O)[C@@H]2O)c(=O)[nH]c1=O",
    "Output Unit": "%",
    "Result Modifier": "=",
    "Val": 100
  },
  {
    "Compound": "Nc1ccn([C@@H]2O[C@H](CO)[C@@H](O)[C@@H]2F)c(=O)n1",
    "Output Unit": "%",
    "Result Modifier": ">",
    "Val": 100
  },
  {
    "Compound": "O=c1[nH]c(=O)n([C@H]2C[C@H](O)[C@@H](CO)O2)cc1I [IDOXURIDINE]",
    "Output Unit": "%",
    "Result Modifier": "=",
    "Val": 100
  },
  {
    "Compound": "Nc1ccn([C@@H]2O[C@H](CO)[C@@H](O)[C@@H]2O)c(=O)n1 [CYTARABINE]",
    "Output Unit": "%",
    "Result Modifier": ">",
    "Val": 100
  },
  {
    "Compound": "O=c1[nH]c(=O)n([C@@H]2O[C@H](CO)[C@@H](O)[C@@H]2O)cc1I",
    "Output Unit": "%",
    "Result Modifier": ">",
    "Val": 100
  }
]
